Property: melting point; scope: individual compounds

| compound | reported_measurement |
| --- | --- |
| O=C(O)c1csc2c1OC(c1ccccc1)(C1CCCCC1)CC2=O (stereo not given) | 269 to 275 °C |
| COc1cc2ncnc(N3CCN(C(=S)NCc4ccc(C(C)(C)C)cc4)CC3)c2cc1OC | 104 to 105 °C |

### Prompt State the recorded melting point for this entry: `COC(=O)c1c(Oc2ccc(Cl)cc2[N+](=O)[O-])c2ccccc2n1Cc1ccccc1`
### Response 120 to 121 °C

### Prompt // query melting point value for entry `O=C1C(c2ccccc2)=C(c2ccccc2)C(=O)N1c1ccccc1`
### Response 173 to 174 °C

### Prompt // lookup melting point for `NC(=O)CNc1ncccc1NC(=O)c1cccc(Cl)c1`
### Response 210 to 211 °C

### Prompt For the compound shown here, COC(=O)c1cc(C)cnc1C1=NC(C)(C(C)C)C(=O)N1C(=O)c1ccccc1 (stereo not given) , give the reported melting point.
### Response 104 to 106 °C

### Prompt What value of measured melting point is listed for `Nc1nc(Cl)cc(NCCCCO)n1` ?
### Response 110 to 112 °C

----------
Each item that follows carries a reported melting point.

Example results:
| compound | melting point |
| --- | --- |
| O=c1oc(Cc2ccc(Oc3ccccc3)cc2)nn1-c1ccccc1Cl | 85 °C |
| COc1ccc(C(NCC(c2ccccc2)c2ccccc2)c2cccc(Nc3c(N)c(=O)c3=O)c2)cc1 (centres undefined) | 193 to 194 °C |
| CCCCc1nc2c(N)nc3ccc(OCCC4CCN(S(C)(=O)=O)CC4)cc3c2n1C | 198 to 200 °C |
| CCOC(=O)c1ccc(/C=C(\C)c2ccc3c(c2)C(C)(C)C(=O)CC3(C)C)cc1 | 173 to 174 °C |
| CC(=O)SCC(Cc1ccccc1)C(=O)Nc1cccc(C(=O)OCc2ccccc2)c1 (centres undefined) | 108 to 109 °C |
| COc1cc2ncnc(Nc3ccc(OCc4ccccn4)c(C)c3)c2cc1OCCN(C)C | 125 to 126 °C |

### Prompt Look up melting point: `O=C(/C=C/c1ccc2ccccc2c1)Nc1ccccc1-c1nnn[nH]1`
### Response 187 to 191 °C

### Prompt What value of melting point has been reported for the following compound? Cn1c(=O)cc(-c2cccc(Cl)c2)c2cc(C(O)(c3ccc(Cl)cc3)c3cnccc3N)ccc21 (centres undefined)
### Response 262 °C

### Prompt Recorded melting point of O=C1NC(=O)N2c3ccc(Cl)cc3[C@H]3CCN4CCC[C@H]1[C@H]4[C@H]32 (racemic) , please.
### Response 243 °C

----------
endpoint_name: melting point

| compound | reported_measurement |
| --- | --- |
| COC1(c2cc(F)cc(OCc3ccc(N(C)S(C)(=O)=O)c(Cl)c3)c2)CCOCC1 | 126 to 128 °C |
| CNC(=O)Nc1ccc2c(c1)C(=O)C1(CC1)O2 | 196 to 204 °C |
| C[C@H](O)C(=O)Nc1c(C(=O)c2ccccc2)[nH]c2cc(Cl)ccc12 | 185 to 190 °C |
| CCCC(C)S(=O)(=O)Nc1ccc(C(=O)CN2CCN(c3ccncc3)CC2)cc1 (stereo not given) | 101 to 103 °C |

### Prompt Recorded melting point for `OCc1cc(-c2ccccc2)cs1` , please?
### Response 112 to 113 °C
